Tested on: UGT enzymes of pooled human jejunum microsomes
Assay: Inhibition of 2ME2 glucuronidation (MG1) in pooled human jejunum microsomes
Format: biochemical
Details: jejunum HJ61; 2ME2 50 μM; inhibitor 10 μM
From the text: Compounds were eluted using a binary solvent gradient system where solvent A was dilute phosphoric acid (pH 3) and solvent B was 80:20 acetonitrile-methanol. […] Detection was at 280 nm.
Entries and their measured residual metabolism (% of control), 2ME2 MG1 follow.

Some molecules with known residual metabolism (% of control), 2ME2 MG1 results, for comparison:
molecule	val
CC/C(=C(/CC)c1ccc(O)cc1)c1ccc(O)cc1 [Diethylstilbestrol, reference compound]	75 (1) %
O=C(OC[C@H]1O[C@@H](OC(=O)c2cc(O)c(O)c(OC(=O)c3cc(O)c(O)c(O)c3)c2)[C@H](OC(=O)c2cc(O)c(O)c(OC(=O)c3cc(O)c(O)c(O)c3)c2)[C@@H](OC(=O)c2cc(O)c(O)c(OC(=O)c3cc(O)c(O)c(O)c3)c2)[C@@H]1OC(=O)c1cc(O)c(O)c(OC(=O)c2cc(O)c(O)c(O)c2)c1)c1cc(O)c(O)c(OC(=O)c2cc(O)c(O)c(O)c2)c1 [Tannic acid]	42 (1) %
O=C(c1ccc(OCCN2CCCCC2)cc1)c1c(-c2ccc(O)cc2)sc2cc(O)ccc12 [Raloxifene, raloxifene, reference compound]	58 (1) %

Then this molecule:
So, O=C(O[C@@H]1Cc2c(O)cc(O)cc2O[C@H]1c1cc(O)c(O)c(O)c1)c1cc(O)c(O)c(O)c1 [Gallocatechin gallate] ? Its residual metabolism (% of control), 2ME2 MG1 was 69 (3) %
